// provenance: patent US6413938B1

System: HCMV strain AD169
Measurement Notes: Human Cytomegalovirus Assay
Assay type: cell-based
Protocol Conditions: Human betaherpesvirus 5, 120 h; HCMV strain AD169 on MRC5 cell monolayers, 5 days, HCMV DNA by blotting and hybridization
Property Name: pIC50
Numbers only, as −log10 of the molar value.

Compound | pIC50
CC(C)Nc1nc2c(Cl)cc(Cl)cc2n1[C@@H]1O[C@H](C)[C@@H](O)[C@H]1O [Example 9] | 5.16
CC(C)Nc1nc2cc(C(F)(F)F)ccc2n1[C@@H]1O[C@H](C)[C@@H](O)[C@H]1O [Example 44] | 5.15
C[C@H]1O[C@@H](n2c(NC3CC3)nc3cc(Cl)c(Cl)cc32)[C@H](O)[C@@H]1O [Example 59] | 5.96
CC(C)Nc1nc2c(Cl)c(Cl)ccc2n1[C@@H]1O[C@H](C)[C@@H](O)[C@H]1O [Example 12] | 5.46
CC(C)Nc1nc2ccc(C(F)(F)F)cc2n1[C@@H]1O[C@H](C)[C@@H](O)[C@H]1O [Example 46] | 5.21

# context switch: different compound, same pIC50
Give the reported pIC50 for this compound. CC(C)Nc1nc2ccc(Cl)cc2n1[C@@H]1O[C@H](C)[C@@H](O)[C@H]1O [Example 50]
5.15
